Assay: folding enthalpy; higher = less favourable; fluorescence melt of hairpins on a sequencing array, two-state fit
Conditions: sodium 0.088 M
METRIC_NAME: folding enthalpy (kcal/mol)
Enter your answer as a number in kcal/mol; do not include the unit.

Please review the entries below; each comes with its answer.
GAGTCCGAAAGGATACTC ((((((....)))..))); -17.9
GCGGTTGGAAACGATCGC (((.(.(....).).))); -28.5
GGTGTCGGAAACGGCACC ((((.((....)).)))); -46.5
GTATGTGGAAACACGTAC (((.(((....))).))); -29.3
GCGTGTGGAAACGCATGC ((.((.(....).)).)); -23.4

# input for lookup
Documented folding enthalpy of GATCACGGAAACGTGATC (((((((....))))))) : -34.2

###

Assay: melting temperature; fluorescence melt of hairpins on a sequencing array, two-state fit, raised by 9.35 °C to match UV melts
Conditions: sodium 0.088 M
METRIC_NAME: Tm (°C)
Just the number in °C, nothing appended.

GCGTCCGAAAGGAGTCGC ((((((....)))..))); 49.5

The reported Tm of the sequence GGGGGCGAAAGCCTACCC ((((((....)))..))) was 49.8

Recorded result, GGTATAACGAAAGTTACC (((..(((....)))))) , Tm: 37.8

Value of Tm reported for the sequence GCCTCGCGAAAGCGATGC ((.((((....)))).)) is 58.2

Input GGCACCGGAAACAGCGCC (((.(.(....).).))) . Output Tm: 34.5

The sequence GTATTACGAAAGTATAC (((.(((....)))))) showed Tm equal to 32.5

Note to self: Tm recorded for GAGCGCGAAAGCGGCCTC ((((((....)))..))) was 51.1

Kindly note the recorded Tm for GCCTTGCGAAAGCTATGC ((.(.((....)).).)) , which is 44.5

GCCAATGCGAAAGCAGGC (((..(((....)))))) yielded Tm of 53

Tm measured on GGCCGCGAAAGCGGTGCC ((((((....)))..))) = 55.7

Form: sequence = GGGGACGGAAACGTCTCC ((.((((....)))).)) ; Tm = 57.2

Sure, the documented Tm for GGCGAAGAAATTCGCC ((((((....)))))) is 63.1

###

Reported folding enthalpy values are given for each entry in this list.
Experiment: folding enthalpy; higher = less favourable; fluorescence melt of hairpins on a sequencing array, two-state fit
Details: sodium 0.088 M
// return numeric value only (unit: kcal/mol, not printed)

Example cases with answers are listed next.
GCAGCCGGAAACGGCTAC (.(((((....))))).); -11.3
GTCCCCGGAAACAGGGAC (((((.(....).))))); -39.9
GATCAAGCTTTGATC ((((((...)))))); -29.5
GCGTCGCGAAAGCCACGC ((((.((....)).)))); -31.1
GCAATGCCGAAAGGCTGC (((..(((....)))))); -15.6
GGCCGCCGAAAGGCAGCC (((.(((....))).))); -25.5
GGAGTCCGAAAGGAGTCC (((.(((....))).))); -44.2
GTCTCAGCGAAAGCTGAC (((..(((....)))))); -8.27

Just so you know, measured folding enthalpy for GACGCTGGAAACAGTGTC (((.(((....))).))) came out at -42

// folding enthalpy lookup, sequence = CGTAACCGGAAACGGACG (((..(((....)))))) , result: -15.2

So for GTTGAGCGAAAGCTTAAC (((.(((....))).))) , the logged folding enthalpy turned out to be -26.4

The reported value for GGAAATCCGAAAGGATCC (((..(((....)))))) in terms of folding enthalpy is -13.1

###

Test: folding enthalpy; higher = less favourable; fluorescence melt of hairpins on a sequencing array, two-state fit
Conditions: sodium 0.088 M
Mark FALSE for folding enthalpy values under -30 kcal/mol, and TRUE for everything at or above.

GCCTTCGAAAGAAGCGGC ((((((....)))..))); TRUE

Does folding enthalpy meet or surpass -30 kcal/mol for GAGTTAGGAAACTAGCTC (((.(((....))).))) ?
TRUE

Is it the case that GCTTAGCGAAAGCAGAGC (((..((....))..))) has folding enthalpy reaching or exceeding -30 kcal/mol?
TRUE

hey, is folding enthalpy for this one >= -30 kcal/mol? GTCTATGCGAAAGCAGAC (((..(((....))))))
TRUE

###

Quick reference for folding enthalpy among some sequences
Assay: folding enthalpy; higher = less favourable; fluorescence melt of hairpins on a sequencing array, two-state fit
Conditions: sodium 0.088 M
# value in kcal/mol; strip the unit string

Entry under test: GGTACGAAAGTACC (((((....))))) . Its folding enthalpy was -30.4

For GAGAACGCGAAAGCGCTC (((..(((....)))))) the sequence record lists folding enthalpy as -12.2

Lab note: measured folding enthalpy of GACGGCGAAAGCCGTGTC ((((((....)))..))) was -9.28

Entry GAATGTGGAAACACATCC (.(((((....))))).) , folding enthalpy reported as -14.1

###

Experiment: folding enthalpy; higher = less favourable; fluorescence melt of hairpins on a sequencing array, two-state fit
Conditions: sodium 0.088 M
Recorded folding enthalpy by entry
Write the answer as a number in kcal/mol, unit excluded.

These recorded examples may help you get a feel for the data.
GCAATCCGAAAGGACTGC (((.(((....))).))); -17.6
GCTTAGCGAAAGCAAAGC ((((.((....)).)))); -23.6

The measured folding enthalpy associated with GGCGTAGCGAAAGCTGCC (((..(((....)))))) reads -21.9

What the record says about GAGTTGGGAAACCAGCTC (((.(((....))).))) : folding enthalpy is -34.7

Noted for GTTCCCGAAAGGGCAAAC ((((((....)))..))) : its folding enthalpy reads -9.62

Data point: GCCCATTCGAAAGAAGGC (((..(((....)))))) ; folding enthalpy = -15.8

###

Experiment: melting temperature; fluorescence melt of hairpins on a sequencing array, two-state fit, raised by 9.35 °C to match UV melts
Details: sodium 0.088 M
Classification field: enter Y for Tm values not below 50 °C, N for values below it.

GCTACGGGAAACCATAGC ((((.((....)).)))); N
GTCCCCGAAAGGGATGAC ((((((....)))..))); N
GTCCTCGAAAGAGCTGAC ((((((....)))..))); N
GTGTCGCGAAAGCGCCAC (((.(((....))).))); Y
GGGTTACGAAAGTAGCCC (((.(((....))).))); Y
GATCTTATTGAAGATC ((((((....)))))); N

Please indicate if the recorded Tm for GATCATAGACATGATC ((((((....)))))) meets or exceeds 50 °C.
N

Could you verify whether the entry GCATGTGGAAACACATGC (((((((....))))))) shows Tm of no less than 50 °C?
Y

Hi, just wondering whether GCGACCACTCGC ((((....)))) shows Tm of 50 °C or higher.
N

API: above_or_equal(metric=Tm, cutoff=50 °C) for item GTATTCGCGAAAGCGTAC (((..(((....))))))
N

Record GACCGCGGAAACACGGTC (((((.(....).))))) ; criterion: Tm no lower than 50 °C. Met?
Y

Say whether GGCGCAGGAAACTGTGCC (((.(((....))).))) shows Tm of 50 °C or more.
Y

Given the entry GTATGCCGAAAGGCTAC (((.(((....)))))) , answer whether its Tm meets or surpasses 50 °C.
N

###

Assay: melting temperature; fluorescence melt of hairpins on a sequencing array, two-state fit, raised by 9.35 °C to match UV melts
Conditions: sodium 0.088 M
METRIC_NAME: Tm
Just the number plus its unit, please.

GGCTTGCGAAAGCATGCC (((.(((....))).))); 66.6 °C

Entry GCCTATGGAAACATAGAC (.(((((....))))).) ; Tm = 32.6 °C

response.value for GATCAGCTTTCTGATC ((((((....)))))) (field: Tm) = 50.5 °C

###

Experiment: folding enthalpy; higher = less favourable; fluorescence melt of hairpins on a sequencing array, two-state fit
Conditions: sodium 0.088 M
# if value of folding enthalpy reaches -20 kcal/mol, tag True; if it stays below, tag False

GATCAACCTGTTGATC ((((((....)))))); False
GCGTCCACACGC ((((....)))); False
GATCCTTTCGAGGATC ((((((....)))))); False

Would you say GATCCAGCCTGGATC ((((((...)))))) shows folding enthalpy at minimum -20 kcal/mol?
False

Is reported folding enthalpy greater than or equal to -20 kcal/mol here: GTTGCTGGAAACAGCAAC (((((((....)))))))
False

Identify whether the reported folding enthalpy of the following sequence is -20 kcal/mol or greater: GCGGTACGAAAGTAACGC (((.(((....))).)))
False

Exam item: decide whether the reported folding enthalpy for GATCTGCATCAGATC ((((((...)))))) is at least -20 kcal/mol.
False

Please tell me: is the sequence GCGCGGCGAAAGCCTCGC (((.(((....))).))) at or over -20 kcal/mol in terms of folding enthalpy?
False
